Measured values drawn from ChEMBL document CHEMBL2074520 for this set.

molecular target: Monocarboxylate transporter 2 (Rattus norvegicus); test: TP_TRANSPORTER: inhibition of lactate uptake in Xenopus laevis oocytes; assay type: functional, cell-based, Oocyte
Sequence (Q63344 whole entry): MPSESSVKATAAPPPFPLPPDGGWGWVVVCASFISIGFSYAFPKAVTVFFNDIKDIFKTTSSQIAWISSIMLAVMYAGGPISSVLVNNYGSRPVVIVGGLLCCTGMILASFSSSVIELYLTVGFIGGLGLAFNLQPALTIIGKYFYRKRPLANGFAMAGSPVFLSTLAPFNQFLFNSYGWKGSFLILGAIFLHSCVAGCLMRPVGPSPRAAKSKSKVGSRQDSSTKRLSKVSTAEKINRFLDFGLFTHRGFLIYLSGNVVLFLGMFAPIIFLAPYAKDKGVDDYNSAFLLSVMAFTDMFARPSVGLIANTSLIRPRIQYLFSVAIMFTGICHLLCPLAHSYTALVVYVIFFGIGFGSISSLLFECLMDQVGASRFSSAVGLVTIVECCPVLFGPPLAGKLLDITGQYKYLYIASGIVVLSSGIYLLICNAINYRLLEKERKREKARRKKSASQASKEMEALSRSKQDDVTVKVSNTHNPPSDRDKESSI
Readout Type: pKi
Worth noting: pKi values are minus log10 of concentrations stated in mol/L.

Quick check: pKi on Monocarboxylate transporter 2 (Rattus norvegicus), item CC(=O)C(=O)O [PYRUVATE] ?
4.10

Further, for CC(=O)CC(=O)O ?
3.10

Try the compound CC(C)C(=O)C(=O)O [2-Oxoisovalerate]
3.52

Lookup CC(C)CC(=O)C(=O)O [2-Oxoisohexanoate]
4.00

How about CC(O)CC(=O)O (racemic) [3-HYDROXYBUTYRIC ACID, (+/-)-] ?
2.92

----------
target: Monocarboxylate transporter 1 (Rattus norvegicus) (UniProt P53987); experiment: TP_TRANSPORTER: inhibition of lactate uptake in Xenopus laevis oocytes; type: functional, cell-based; design: concentration or dose not given beside the values; settings: Oocyte
Sequence (P53987 whole entry): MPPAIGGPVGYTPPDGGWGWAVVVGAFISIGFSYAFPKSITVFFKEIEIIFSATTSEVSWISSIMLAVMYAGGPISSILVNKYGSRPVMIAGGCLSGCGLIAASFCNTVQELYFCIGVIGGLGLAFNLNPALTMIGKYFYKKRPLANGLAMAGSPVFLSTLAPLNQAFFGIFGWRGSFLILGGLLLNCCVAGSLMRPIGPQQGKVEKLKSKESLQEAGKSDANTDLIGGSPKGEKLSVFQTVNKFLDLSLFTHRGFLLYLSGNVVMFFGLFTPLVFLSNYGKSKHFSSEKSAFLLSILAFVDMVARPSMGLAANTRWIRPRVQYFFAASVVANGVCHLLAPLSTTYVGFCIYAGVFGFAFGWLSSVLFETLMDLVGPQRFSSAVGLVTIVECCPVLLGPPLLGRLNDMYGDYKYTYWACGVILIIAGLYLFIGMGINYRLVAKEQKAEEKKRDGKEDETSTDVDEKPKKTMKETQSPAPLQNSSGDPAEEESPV
Field: Activity. Provide a value for each of the compounds that follow.
The response must be a number in % with no trailing unit.

# lookup: Activity of CCCN(CCC)S(=O)(=O)c1ccc(C(=O)O)cc1
110

How about this compound: O=C(O)C(O)c1ccccc1 (stereo not given)
97

Another compound: CCCCCC#CCC#CCC#CCC#CCCCC(=O)O
117

Okay, and O=C(O)CC12CC3CC(CC(C3)C1)C2 ?
96

Also CCc1oc2ccccc2c1C(=O)c1cc(Br)c(O)c(Br)c1 [BENZBROMARONE] , if possible.
19

How about this compound: O=[N+]([O-])c1ccc(/C=C/c2ccc([N+](=O)[O-])cc2S(=O)(=O)O)c(S(=O)(=O)O)c1
112

Consider next the compound N#C/C(=C\c1ccc(O)cc1)C(=O)O [alpha-CYANO-4-HYDROXYCINNAMIC ACID] in the same way.
74.4

Same read-out for O=C(CCc1ccc(O)cc1)c1c(O)cc(O)cc1O [PHLORETIN] ?
14

Lookup c1ccc(CSSCc2ccccc2)cc1
99

What would you report for O=c1c(O)c(-c2ccc(O)c(O)c2)oc2cc(O)cc(O)c12 [QUERCETIN] ?
11

Same again, this time with O=C(O)c1cccnc1Nc1cccc(C(F)(F)F)c1
36

Now the same for O=C(O)c1ccc(-c2ccccc2)cc1
88

Then this compound: CC(=O)Oc1ccccc1O
92

Also need O=C(O)c1c2ccccc2cc2ccccc12 , thanks.
102

Also check O=C(O)c1cc([N+](=O)[O-])ccc1NCCCc1ccccc1
54

----------
Please respond with reported IC50 for every item in the list.
molecular target: Monocarboxylate transporter 2 (Rattus norvegicus); experiment: TP_TRANSPORTER: inhibition of lactate uptake in Xenopus laevis oocytes
Report as a plain number; the unit µM is understood.

Look at this compound and give its reported IC50. CCc1oc2ccccc2c1C(=O)c1cc(Br)c(O)c(Br)c1
9

Thanks! And N#C/C(=C\c1ccc(O)cc1)C(=O)O [alpha-CYANO-4-HYDROXYCINNAMIC ACID] ?
24

Query O=c1c(O)c(-c2ccc(O)c(O)c2)oc2cc(O)cc(O)c12 next
5

Repeat for the following compound: O=C(CCc1ccc(O)cc1)c1c(O)cc(O)cc1O
14
